Target: T1, recombinant mouse WISP1/His (mouse, UniProt O54775 23-367)
T1 construct: also called murine WISP1; mWISP1; not shown: His tag
T1 sequence (looked up): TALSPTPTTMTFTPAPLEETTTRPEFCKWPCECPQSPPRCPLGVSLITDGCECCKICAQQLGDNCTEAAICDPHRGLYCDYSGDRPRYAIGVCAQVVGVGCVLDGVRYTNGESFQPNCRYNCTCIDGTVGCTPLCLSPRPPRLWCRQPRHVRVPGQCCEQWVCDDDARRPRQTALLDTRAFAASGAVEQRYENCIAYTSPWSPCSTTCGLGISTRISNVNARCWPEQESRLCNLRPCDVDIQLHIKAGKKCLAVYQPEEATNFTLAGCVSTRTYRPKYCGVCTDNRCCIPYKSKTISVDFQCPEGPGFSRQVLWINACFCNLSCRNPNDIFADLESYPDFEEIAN
Test: ELISA screening
OBSERVED PROPERTY: binding result

WIr1B11 (antibody, V domains shown, Fully human IgG; also called Wlr1B11) VH: EVQLVQSGAEVKKPGASVKVSCKASGYTFTSYDINWVRQATGQGPEWLGWLNPGSGKTGNAQNFQGRVFMTWDTSKDTAYMEMSSLRSDDTAVYYCARNLDYWGQGTLVTVSS VL: DIVMTQTPSSLSASVGDRVTITCRASQSISSYLNWYQQKPGKAPKLLIYAASSLQSGVPSRFSGSRSGTDFTLTITNVQPEDFATYYCLQAYDFPITFGQGTKVEIK :: binds
WIr2G7 (antibody, V domains shown, Fully human IgG; also called Wlr2G7) VH: QVQLVQSGAEVKKPGASVKVSCKASGYTFTSYDINWVRQATGQGPEWLGWLNPGSGKTGNAQNFQGRVFMTWDTSKDTAYMEMSSLRSDDTAVYYCARNLDYWGQGTLVTVSS VL: DIVMTQTPLSLPVTLGQPASISCRSSQSLVYSDGNTYLSWLQQRPGQPPRVLINQISNRFSGVPDRFSGSGAGTDFTLKISRVEAEDVGVYYCMQATQFPVTFGGGTKVEIK :: binds
